Reported Median dimer activity (recombination on loxP) is given for each of the following proteins.
measurement-target: T1, Cre recombinase monomer with Q311R mutation
T1 chain: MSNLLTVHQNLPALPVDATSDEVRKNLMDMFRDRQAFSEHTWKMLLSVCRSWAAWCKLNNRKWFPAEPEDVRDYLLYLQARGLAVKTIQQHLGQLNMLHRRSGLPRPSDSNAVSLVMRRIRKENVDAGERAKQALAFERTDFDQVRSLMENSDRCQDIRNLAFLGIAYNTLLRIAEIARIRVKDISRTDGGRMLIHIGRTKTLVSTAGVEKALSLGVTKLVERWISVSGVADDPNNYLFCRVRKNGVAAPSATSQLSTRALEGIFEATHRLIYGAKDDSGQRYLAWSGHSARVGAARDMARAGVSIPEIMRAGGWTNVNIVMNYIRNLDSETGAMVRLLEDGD
Record the value in %, omitting the unit from your answer.

>  <protein>
Cre recombinase monomer with K201C mutation (protein) MSNLLTVHQNLPALPVDATSDEVRKNLMDMFRDRQAFSEHTWKMLLSVCRSWAAWCKLNNRKWFPAEPEDVRDYLLYLQARGLAVKTIQQHLGQLNMLHRRSGLPRPSDSNAVSLVMRRIRKENVDAGERAKQALAFERTDFDQVRSLMENSDRCQDIRNLAFLGIAYNTLLRIAEIARIRVKDISRTDGGRMLIHIGRTCTLVSTAGVEKALSLGVTKLVERWISVSGVADDPNNYLFCRVRKNGVAAPSATSQLSTRALEGIFEATHRLIYGAKDDSGQRYLAWSGHSARVGAARDMARAGVSIPEIMQAGGWTNVNIVMNYIRNLDSETGAMVRLLEDGD

>  <unit-of-measurement>
%

>  <numeric-value>
93

$$$$

Let's switch to this protein now.
INPUT: So what does the record say about Median dimer activity (recombination on loxP) for Cre recombinase monomer with K201V mutation (protein) MSNLLTVHQNLPALPVDATSDEVRKNLMDMFRDRQAFSEHTWKMLLSVCRSWAAWCKLNNRKWFPAEPEDVRDYLLYLQARGLAVKTIQQHLGQLNMLHRRSGLPRPSDSNAVSLVMRRIRKENVDAGERAKQALAFERTDFDQVRSLMENSDRCQDIRNLAFLGIAYNTLLRIAEIARIRVKDISRTDGGRMLIHIGRTVTLVSTAGVEKALSLGVTKLVERWISVSGVADDPNNYLFCRVRKNGVAAPSATSQLSTRALEGIFEATHRLIYGAKDDSGQRYLAWSGHSARVGAARDMARAGVSIPEIMQAGGWTNVNIVMNYIRNLDSETGAMVRLLEDGD ?
OUTPUT: 84
